molecular target: Nucleoli Translocation, AR (gene 367); test: UPITT_HCI_U2OS_AR_TIF2_Nucleoli_Antagonist: University of Pittsburgh U2OS Androgen Receptor-Transcriptional Intermediary Factor 2 (AR-TIF2) Antagonism High Content Imaging Assay for Nucleoli Translocation (AID 2283997)
Inconclusive results are not listed. Calls of active or inactive are those of the source. The calls were made as follows: active = hit-call score of the fitted dose curve at least 0.9, where 1 is the maximum; inconclusive = response in the unintended direction; inactive = score below 0.9.
Outcome codes: Yes (active), No (inactive)

molecule="CCCOCC(C)O (stereo not given)" studysystem="Nucleoli Translocation, AR (gene 367)" classassignment=No
molecule=CCCCCCCCCCCCCCCC(=O)OC[C@H](O)[C@H]1OC(=O)C(O)=C1O studysystem="Nucleoli Translocation, AR (gene 367)" classassignment=No
molecule=O=Nc1ccc(Nc2ccccc2)cc1 studysystem="Nucleoli Translocation, AR (gene 367)" classassignment=Yes
molecule=CCC/C=C/C=O studysystem="Nucleoli Translocation, AR (gene 367)" classassignment=No
molecule=c1ccc2c(c1)c1cccc3ccc4cccc2c4c31 studysystem="Nucleoli Translocation, AR (gene 367)" classassignment=No
